These data points were gathered from patent US10988477B2.

- target.or.system: GCN2 kinase (Homo sapiens, UniProt Q9P2K8)
- Sequence (Q9P2K8 whole entry): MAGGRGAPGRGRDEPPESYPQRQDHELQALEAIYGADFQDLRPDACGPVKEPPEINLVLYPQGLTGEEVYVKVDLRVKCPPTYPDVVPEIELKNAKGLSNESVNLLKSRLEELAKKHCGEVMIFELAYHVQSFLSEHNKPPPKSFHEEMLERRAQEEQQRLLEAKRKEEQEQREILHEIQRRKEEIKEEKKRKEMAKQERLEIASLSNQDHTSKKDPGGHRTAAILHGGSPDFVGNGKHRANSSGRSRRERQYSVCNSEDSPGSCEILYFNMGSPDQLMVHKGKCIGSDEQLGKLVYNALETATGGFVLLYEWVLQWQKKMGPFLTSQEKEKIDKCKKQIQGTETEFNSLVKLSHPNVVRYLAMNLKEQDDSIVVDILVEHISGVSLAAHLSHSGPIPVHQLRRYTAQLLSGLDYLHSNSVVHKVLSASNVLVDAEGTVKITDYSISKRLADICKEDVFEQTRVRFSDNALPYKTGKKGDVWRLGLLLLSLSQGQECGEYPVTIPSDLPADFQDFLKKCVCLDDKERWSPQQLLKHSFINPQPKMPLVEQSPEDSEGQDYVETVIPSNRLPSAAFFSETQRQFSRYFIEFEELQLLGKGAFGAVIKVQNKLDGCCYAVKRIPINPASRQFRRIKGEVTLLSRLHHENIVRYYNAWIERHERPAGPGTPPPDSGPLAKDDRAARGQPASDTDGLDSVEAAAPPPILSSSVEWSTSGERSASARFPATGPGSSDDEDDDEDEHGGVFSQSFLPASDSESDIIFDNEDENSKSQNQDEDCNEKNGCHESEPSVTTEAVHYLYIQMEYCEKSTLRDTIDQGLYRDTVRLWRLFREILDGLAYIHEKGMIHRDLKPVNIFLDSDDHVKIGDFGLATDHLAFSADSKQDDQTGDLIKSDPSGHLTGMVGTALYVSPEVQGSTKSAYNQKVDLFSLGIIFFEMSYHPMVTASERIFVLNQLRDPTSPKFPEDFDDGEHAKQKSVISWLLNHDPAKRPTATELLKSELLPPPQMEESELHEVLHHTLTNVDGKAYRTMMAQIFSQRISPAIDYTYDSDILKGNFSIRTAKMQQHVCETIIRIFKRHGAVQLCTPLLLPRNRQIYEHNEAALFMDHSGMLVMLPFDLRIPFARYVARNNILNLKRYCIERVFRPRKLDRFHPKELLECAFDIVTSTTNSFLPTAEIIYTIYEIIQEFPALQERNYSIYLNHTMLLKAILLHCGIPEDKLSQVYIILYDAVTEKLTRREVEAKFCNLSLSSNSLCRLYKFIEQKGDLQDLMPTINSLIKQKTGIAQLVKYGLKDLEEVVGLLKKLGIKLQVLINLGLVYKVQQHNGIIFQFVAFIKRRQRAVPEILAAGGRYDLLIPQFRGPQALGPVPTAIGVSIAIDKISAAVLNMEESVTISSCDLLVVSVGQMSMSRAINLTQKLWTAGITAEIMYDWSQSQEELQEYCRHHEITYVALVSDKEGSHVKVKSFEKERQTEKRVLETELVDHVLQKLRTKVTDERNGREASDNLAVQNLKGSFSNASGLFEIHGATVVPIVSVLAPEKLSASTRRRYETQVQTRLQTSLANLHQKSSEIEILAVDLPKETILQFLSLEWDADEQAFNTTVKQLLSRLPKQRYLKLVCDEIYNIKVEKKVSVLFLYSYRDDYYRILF
- method.notes: GCN2 enzyme inhibition assay (Transcreener ADP2 fluorescence polarization)
- Assay type: biochemical
- conditions.used: compounds of Formula II; 280 μM ATP, 4 nM GCN2 kinase
result.type: Ki

Example entries begin here.
molecule	target.or.system	Ki
CC1CCC(CNS(C)(=O)=O)C(C)N1c1cc(-c2cnc3ccc(C(F)F)nn23)ncn1 (centres unmarked)	GCN2 kinase (Homo sapiens, UniProt Q9P2K8)	< 10 nM
CC(=O)N1CCN(c2cc(-c3cnc4ccc(C(F)F)nn34)ncn2)C(C)C1 (centres unmarked)	GCN2 kinase (Homo sapiens, UniProt Q9P2K8)	10 to 1000 nM
CS(=O)(=O)N1CCC2(CCCCN2c2cc(-c3cnc4ccc(C(F)F)nn34)ncn2)C1 (centres unmarked)	GCN2 kinase (Homo sapiens, UniProt Q9P2K8)	10 to 1000 nM
CC1C(CO)N(C(C)(C)C)CCN1c1cc(-c2cnc3ccc(C(F)F)nn23)ncn1 (centres unmarked) [II-43]	GCN2 kinase (Homo sapiens, UniProt Q9P2K8)	> 1000 nM
CS(=O)(=O)NCC1CC(O)CN(c2cc(-c3cnc4ccc(C(F)F)nn34)ncn2)C1 (centres unmarked) [II-13]	GCN2 kinase (Homo sapiens, UniProt Q9P2K8)	< 10 nM
CC1C(CS(C)(=N)=O)CCCN1c1cc(-c2cnc3ccc(C(F)F)nn23)ncn1 (centres unmarked) [II-486]	GCN2 kinase (Homo sapiens, UniProt Q9P2K8)	10 to 1000 nM
OC1CCN(C2CCN(c3cc(-c4cnc5ccc(C(F)F)nn45)ncn3)C2)C1 (centres unmarked)	GCN2 kinase (Homo sapiens, UniProt Q9P2K8)	10 to 1000 nM

# evaluate next
*Q* Entry O=S(=O)(NCC1CCCN(c2cc(-c3cnc4ccc(C(F)F)nn34)ncn2)C1)C1COC1 (centres unmarked) : reported Ki = ?
*A* 10 to 1000 nM

* * *

- target.or.system: GCN2 kinase (Homo sapiens)
- method.notes: GCN2 enzyme inhibition assay (Transcreener ADP2 fluorescence polarization)
- Type: biochemical
- conditions.used: compounds of Formula II; 280 μM ATP, 4 nM GCN2 kinase
pIC50: −log10 of the molar value.
# maps each entry to its pIC50

compound	pIC50
Cc1nn(C)cc1C1CN(c2cc(-c3cnc4ccc(C(F)(F)F)nn34)ncn2)C[C@@H](C)O1 (stereo in doubt) [II-761]	< 6.00
CC1CC(N=S(C)(C)=O)CN(c2cc(-c3cnc4ccc(C(F)(F)F)nn34)ncn2)C1 (stereo not shown) [II-757]	6.00 to 8.00

*Q* Missing value: pIC50, GCN2 kinase (Homo sapiens), entry Cc1nn(C)cc1[C@H]1CN(c2cc(-c3cnc4ccc(C(F)(F)F)nn34)ncn2)C[C@H](C)O1 [II-758] . Fill in?
*A* < 6.00

*Q* Missing value: pIC50, GCN2 kinase (Homo sapiens), entry C[C@@H]1C[C@H](N=S(C)(C)=O)CN(c2cc(-c3cnc4ccc(N5CC(F)C5)nn34)ncn2)C1 [II-764] . Fill in?
*A* 6.00 to 8.00

*Q* Missing value: pIC50, GCN2 kinase (Homo sapiens), entry C[C@H]1[C@@H](CNS(C)(=O)=O)N(C2CC2)CCN1c1cc(-c2cnc3ccc(C(F)F)nn23)ncn1 [II-752] . Fill in?
*A* > 8.00

*Q* Missing value: pIC50, GCN2 kinase (Homo sapiens), entry C[C@H]1[C@H](CNS(C)(=O)=O)N(C2CC2)CCN1c1cc(-c2cnc3ccc(C(F)F)nn23)ncn1 [II-769] . Fill in?
*A* 6.00 to 8.00

*Q* Missing value: pIC50, GCN2 kinase (Homo sapiens), entry Cc1nn(C)cc1[C@@H]1CN(c2cc(-c3cnc4ccc(C(F)(F)F)nn34)ncn2)C[C@H](C)O1 [II-759] . Fill in?
*A* 6.00 to 8.00
